Percent Effect listing for selected compounds.
# Test system: Wolbachia pipientis
# method-notes: Anti-Wolbachia Cell-Based Screen
# Type: functional
# Design: scale not given: in the data most compounds retested in dose-response had high values
# applied-conditions: 5 µM
In all, about 48,000 compounds went through this assay and about 13,000 (27%) showed an effect of 50% or more. This is one part of the list.
The response must be a number in % with no trailing unit.

Record excerpt, results attached:
Cc1nc(C)c(CN2CCOC[C@H](Oc3ccc(S(C)(=O)=O)cc3)C2)s1; -11.23
CC(C)c1noc(C(C)N2CCN(c3ccc(C#N)cn3)CC2)n1 (stereo unspecified); 186.4
CC(=O)NC1CCCN(C(=O)Nc2cnc3c(cnn3C(C)C)c2)C1 (stereo unspecified); -1.693
Cc1ccc(-c2noc(C(O)CC(C)C)n2)nn1 (stereo unspecified); -5.785
CNc1nc(CNC(=O)Nc2cccc(-c3nnco3)c2)cs1; -5.762

Could you share what Percent Effect was measured for Cc1cc(C)c2nc(CN3CCC(N4CCOCC4)CC3)cc(O)c2c1 , tested on Wolbachia pipientis?
-11.95

// repeat for CC(C)c1noc(C(C)N2CCN(Cc3ccccc3C#N)CC2)n1 (stereo unspecified) and report
-2.438

// repeat for COc1cc2cc3c(nc2cc1OC)OCCN(Cc1cccs1)C3 and report
120.6

// repeat for O=C(NCc1ccccc1CN1CCC(O)CC1)Nc1ccncc1 and report
-8.548

// repeat for CC(C)S(=O)(=O)CC(=O)N(Cc1ccsc1)c1ccccc1 and report
-3.342

// repeat for COc1ccccc1CN1C(=O)O[C@@H]2CN(CC3CC3)C[C@@H]21 and report
6.078

====

# Test system: Wolbachia pipientis
# method-notes: Anti-Wolbachia Cell-Based Screen
# Type: functional
# Set-up: scale not given: in the data most compounds retested in dose-response had high values
# applied-conditions: 5 µM
About 13,000 (27%) of roughly 48,000 compounds showed an effect of 50% or more. The list shows a part of the results.
reported-metric: Percent Effect (%)
The response must be a number in % with no trailing unit.

O=C(CCc1nccs1)N1CCN(c2ccccn2)CC1; 104.9

Suppose we examine the compound COc1cc(C)nc(N2CCN(C(=O)CCc3nccs3)CC2)n1 ; what Percent Effect value has been reported?
-2.127

// repeat for CCc1noc(CC)c1CC(=O)N1CCC(C(=O)NC(C)C)CC1 and report
-12.02

// repeat for Cc1csc(N2CCN(C(=O)CCc3nccs3)CC2)n1 and report
0.8841

// repeat for O=C(COCc1ccccc1)N1CCN(c2ccc(Cl)cn2)CC1 and report
1.398

// repeat for O=C(CCc1nccs1)N1CCN(c2ccc(Cl)cn2)CC1 and report
142.1

====

Percent Effect listing for selected compounds.
# Test system: Wolbachia pipientis
# method-notes: Anti-Wolbachia Cell-Based Screen
# Type: functional
# Design: scale not given: in the data most compounds retested in dose-response had high values
# applied-conditions: 5 µM
Out of some 48,000 compounds screened, about 13,000 (27%) showed an effect of 50% or more. This is one part of the list.
Give the value; after it, write the unit.

Record excerpt, results attached:
CC(C)Cc1cc(NC(=O)c2ccc[nH]2)n(C)n1; 5.511%
CC(C)c1nc(C2CCCN(C(=O)CN3CCN(C)CC3)C2)no1 (configuration not stated); -17.54%
Cc1nc(C2CCCN2C(=O)CCCn2cccn2)no1 (configuration not stated); 80.92%
CC(=O)Nc1cc(C(=O)Nc2cc(CC(C)(C)C)nn2C)ccc1F; -21.96%
CCCOc1ccc2ccccc2c1CN1CC[C@@]2(O)CCNC[C@H]2C1; 3.118%
Cc1nc(C2CCCN2C(=O)Cn2cncn2)no1 (configuration not stated); 83.95%

Suppose we examine the compound CC(C)Cc1cc(NC(=O)c2ccccc2)n(C)n1 ; what Percent Effect value has been reported?
80.95%

// repeat for Cc1csc(C2CCCCN2C(=O)Cn2cncn2)n1 (configuration not stated) and report
-6.402%

// repeat for Cc1nc(C2CCCN2C(=O)CCCOc2ccccc2C)no1 (configuration not stated) and report
3.026%

// repeat for Cc1nc(C2CCCN2C(=O)CNS(C)(=O)=O)no1 (configuration not stated) and report
-1.869%

// repeat for Cc1csc(C2CCCCN2C(=O)CCCn2cccn2)n1 (configuration not stated) and report
-9.362%

// repeat for CC(C)Cc1cc(NC(=O)c2cc(Cl)c[nH]2)n(C)n1 and report
97.83%
